# Test system: THRa homodimer (NR concentration 90 nM)
# Method: PBM binding z-score (relative to random genomic background probes); higher = stronger binding; sequences stand for … in GC…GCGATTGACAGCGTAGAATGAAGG
# cutoff 1 applies to PBM binding z-score; >= gives 1, < gives -1

1) TCTCGGAGGACACGAAAGGTAAGAGCTCGACATC | -1
2) AGTCAAAGTTCAGGACGAGGTAACGTCAAGCACG | 1
3) TCATGTAGATCAACAGGAGGTTAAGAAAGATCGA | -1
4) CAAACTAGGTCAAGAGGTCTAAGTCCGCTTCCCG | 1
5) TCTCGGAGGACACGAAGGTCAGGGCTTTCCAGAG | 1
6) TAGCCTACGTCATGGGCCAGTATACCACGCGAAC | -1

====

# Test system: RXRa DBDmut IVT, anti-RXR (DBD mutation: RXRa K156A/R161A, NR concentration 90 nM)
# Method: PBM binding z-score (relative to random genomic background probes); higher = stronger binding; sequences stand for … in GC…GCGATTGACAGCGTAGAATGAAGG
# cutoff 2 applies to PBM binding z-score; >= gives Condition met, < gives Condition not met

1) CAAACTAGGTCACCGGAAGGTCAAAATCCGCATG | Condition met
2) ATACCAAGGTGATCGTTAGGTCGTTGATACTAAC | Condition not met
3) ATACTAAGGTGATCGTGAGGTCGTTGATACTAAC | Condition not met
4) CCACGGAGGACAACAGGAGGTCAGAGCTGCCAGA | Condition not met
5) ATATCTAGGTTAGCTGGGGTCATTCAGACTAGGC | Condition not met
6) TCGAGTTGGTCAAAGGTCACACACTCGAAATGCG | Condition met

====

# System: THRa:RXRa (NR concentration 90 nM, RXRa partner concentration 90 nM)
# Method: PBM binding z-score (relative to random genomic background probes); higher = stronger binding; sequences stand for … in GC…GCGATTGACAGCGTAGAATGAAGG
Test readout: PBM binding z-score

1) TCATATAGGTAGAGGTGAAAGTCGAACGATATGA | 1.41
2) GCTGCTAGGTCAACTGATGGTCAGGTAAAGCTCG | 3.27
3) CATGCAGGGTCAGCTAGGCCAGAGTAGGGACGGC | 3
4) GATACAGGGTCAGCAAGAGGCCAGAGTATGGAAA | 3.21
5) GCGACTGGGGCATCAGCAGGTTACCATCACTTAA | 0.783
6) TCATATAGGTAAAGGTGAGAGTCGAACGATATGA | 0.888

====

Reported PBM binding z-score values for the following sequences.
# Tested on: PPARg:RXRa IVT, anti-PPARg (NR concentration 270 nM, RXRa partner concentration 90 nM)
# Method: PBM binding z-score (relative to random genomic background probes); higher = stronger binding; sequences stand for … in GC…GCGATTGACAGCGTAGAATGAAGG
Test readout: PBM binding z-score

1. ATCTCTACGTAACCAAGTTCAGTGAATGCCGAAC | 0.0113
2. ATATGTAGGTTAAGTGTCATTCAGGTTGGTTCGC | 7.34
3. CCGAGTGGGGCATAAGGTTACCATAAGCCAGCCC | 2.81
4. TCTTGTTGGTCAAAGGTCACACACTCGAAATGCG | 5.98
5. AATACAGGGTCATCGTAGGCCAGAGTGCGCACAG | 4.22
6. CCGACTGGGGCAAGGTTATCATAACGCACAGCCA | 3.27
7. TCGAGTAGGTTAGGGGCATTGAGAATGGCGTCGA | 1.45
8. CGAACGAGGGCAGGAGTTGATAGCAAATGCCGAT | 1.44
9. TGTCAAAGTTCAAAGGTACCGTAAGTATCCACAC | 4.3
10. CCTATTAGTTGACCATAAGGGCAGCCGAAGCTCG | 0.178
11. TGAATGAGGTTAAAGATCAGGGGACGTGGCGTCG | 3.35
12. ACTAGCAGGCCAAGTTTGGGTCCCTCAAACAAAG | -0.00665

====

# Tested on: PPARg:RXRa (NR concentration 180 nM, RXRa partner concentration 90 nM)
# Method: PBM binding z-score (relative to random genomic background probes); higher = stronger binding; sequences stand for … in GC…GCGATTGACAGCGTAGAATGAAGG
Test readout: PBM binding z-score

1) TATCGGAGGACACGAAGGTCAGAGCTTTCCAGAG | 0.951
2) CCTTACGGGTCACGAGGCTATAGCACGACGAGCG | 6.52
3) CAAACTAGGTCAAGAGGTCAGAGTCCGCTTCCCG | 9.79
4) AATACAGGGTCACTAGGCCATAGTAGGTACGAAT | 8.68
5) CAAACTAGGTCAGAGAGGTCAAAGTCCGTGCGTA | 8.4
6) GCTGCTAGGTCAGGTTGGTCAGCTATCGGGTACG | 0.304
7) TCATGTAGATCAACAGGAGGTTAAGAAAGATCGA | 0.396
8) CAAACTAAGTCACAGAGGTCAAAGTCCGTGCGTA | 3.74
9) ATCTATAGGTAAAGTTCAGTGAAAGATCGATAGA | 3.67
10) ATATGTAGGTTAAGGGTCATTAAGGTTGGTTCGC | 11.6
11) AGAATGAGGTTATTAAGAGCAGGGAATTGCGGTC | 1.58
12) CCAGACAGGGGAAAGGTAACTCAGTCTGGTACGC | 2.34
13) CCTTACGGGTCACTCCAGGTTTTAGCATCGGAGT | 3.06
14) CTCGAACGGTCGGTTGAGGTGAGTATACGGATAA | -0.199
15) CCGAGTAGGTTATGGGGCATCCAGGCAACGGTGA | 3.95
16) ATATGTGGGTTAAGGGTCATTCAGGTTGGTTCGC | 11.6
17) TCTAGTTGGTCACGAAGGTCACACACGACGGGTA | 3.45
18) ATATGTAGGTTAGCTCGGGTCATTCAGACTAGGC | 4.25
19) TCTCGGAGGACACGAAAGATCAGAGCTCGACATC | 0.493
20) CGAACTAGGTCAAGGAAAGTGAATCTCCGCACGC | 7.18
21) TCTAGCAGGCCTGAGGGTCACTCAAGAGGTACGG | 0.588
22) TCGAGTAGGTTACAAATGGGGCATTCAGCTTTCT | 0.565
23) TCTTGTAGATCAAGCAGGTTAACAAAGCCTGAGT | -0.0763
24) ACTTACGGGTCAACGAGGTTTTAGCACGCGTATA | 5.23
25) TAGCCTAGGTCATGGGCCAGTATTCCACGCGAAC | 3.67
26) TCTGCTAGGTCAACGATGGACAGCTAATCTGCTA | 2.78

====

# System: LXRa:RXRa (NR concentration 270 nM, RXRa partner concentration 90 nM)
# Method: PBM binding z-score (relative to random genomic background probes); higher = stronger binding; sequences stand for … in GC…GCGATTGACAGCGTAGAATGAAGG
Consider the reported PBM binding z-score of an entry and match it to a band in lo: < 0.4; med: ≥ 0.4 and < 3; hi: ≥ 3

1) CGTCCAAGGTCATAGGAGGGCAGTGAAGACAGAT | hi
2) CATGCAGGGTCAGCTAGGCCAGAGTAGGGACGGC | med
3) CGTCCAAGGTCATAGGAGGTCAGTAAAGACAGAT | hi
4) ATATGTAGGTTAGCTGGGGTAATTCAGACTAGGC | med
5) AGAATGAGGTTATTAGGATCAGGGAATTGCGGTC | med
6) CGAACTAGGTCAAGGACAGTGAGTCTCCGCACGC | med
7) CCTCGGAGGACAACAGGAAGTCAGAGCTGCCAGA | lo
8) ATCTCTAGGTAACCAAGTTCAGTGTATGCCGAAC | med
9) CCAACTAGGTCAAGAGGTCAAAGTCCGCTTCCCG | hi
10) GCTATTAGTTGAGAGGGCAACCGAATGATTCTCG | med
11) CCTGCTATGTCATGGTCAGCTAATCTACAGTATG | lo
12) GCGACTGGGGCAAAGCAGGTTACCATGAGGTTGG | lo

====

# System: LXRa:RXRa (NR concentration 270 nM, RXRa partner concentration 90 nM)
# Method: PBM binding z-score (relative to random genomic background probes); higher = stronger binding; sequences stand for … in GC…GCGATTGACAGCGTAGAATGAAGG
Consider the reported PBM binding z-score of an entry and match it to a band in bucket 1 = under 1, bucket 2 = from 1 up to 4, bucket 3 = 4 and over

1) TCTCGGACGACACGAAGGTCAGAGCTTTCCAGAG | bucket 1
2) TCGAGTCGGTTACCAATGGGGCATTCAGCTTTCT | bucket 1
3) CGTCCAAGGTCAAGGTTAGTGAAAGAGACTCGAA | bucket 3
4) TAGCCTAGGTCATTGGGCCGGTATAGTACGCATC | bucket 2
5) TCTTGTAGATCACTAGAGGTTAAGAAAGTGCGCT | bucket 3
6) CCTACTGGCCCACGAAAGGTCATTGATTCAGTGA | bucket 3
7) CAGACTAGGTCAAGGTCAAAGTCGGTTTGTGCCA | bucket 3
8) ATCTCTAAGTAAGACTCAGTTCAGTGAAGAACGC | bucket 1
9) TAGCCTAGGTCATTGGGCCTGTATAGTACGCATC | bucket 2
10) TCATATAGGTAATCCAGGTGAAAGTCGGCATCTA | bucket 2
11) ATCTCTAGGTAACAAGTGCAGTGAAAGAGAGGAC | bucket 1
12) TCGAATAGGTTACCAATGGGGCATTCAGCTTTCT | bucket 2
13) CCGACTGGGGCAGAAAGGTTACCAGACCATCCGG | bucket 1
14) TTACCAAGGTGAAAGGTCGATGATGCACGCCTTG | bucket 2
15) AGAATGAGGTTATACGTAGATAAGGGAAGAAAGT | bucket 2
16) GCGACTGGGGCATCAGGAGGTTACCATAACTTAA | bucket 1
17) TAGCCTAGGTCATTCACGGGCCAGTATAGAAAGC | bucket 2
18) TGGCCTAGGTCATTCAGGGGCCAGTATAGAAAGC | bucket 2
19) TGCATGAGGTTATAAGATCAGGGAACGTTGCAAA | bucket 2
20) TATACAGGGTCAAAGGCCAGAGTACGAATGTCGA | bucket 3
21) TTACCAATGTGAGCTGAGGTCGTTGATCCAACTC | bucket 1
22) GCTCCTAGGTCAGGTTGGTCAGCTAACGGGTACG | bucket 2
23) ATCTCTAGGTAAAATTCAGTGAAAGATCGATAGA | bucket 1
24) ATCGAAAGGTCGAGGTGGGTATAGAGAAAGGGAA | bucket 2
